tested on: leukotriene D4 induced bronchoconstriction; test: inhibition of leukotriene D4 induced bronchoconstriction in anaesthetized guinea pigs (modified Konzett-Rossler); assay type: in vivo, guinea pig; settings: Cavia porcellus, 10 min, directly into the duodenum, dose producing 50% inhibition when given 10 minutes before LTD4, read-out: ED50 (median effective dose), inhibition of LTD4 induced bronchoconstriction
Reported ED50 values follow for various compounds
Reply numerically in mg/kg, unit not repeated.

Worked cases, ED50 given:
compound	ED50 / mg/kg
CCCc1c(OCCCOc2ccc(CC(=O)O)cc2Cl)ccc(C(C)=O)c1O [Entry 8]	5
CCCc1c(OCC(O)COc2ccc(CC(=O)O)cc2F)ccc(C(C)=O)c1O (stereo not drawn) [Entry 5]	2.5
CCCc1c(OCC(O)COc2ccc(CC(=O)O)cc2Br)ccc(C(C)=O)c1O (stereo not drawn) [Entry 6, acetic acid]	2.5
CCCc1c(OCCCOc2ccc(CC(=O)O)cc2F)ccc(C(C)=O)c1O [Entry 4, acetic acid]	10
CCCc1c(OCCCOc2ccc(CC(=O)O)cc2Br)ccc(C(C)=O)c1O [Entry 9, acetic acid]	10
CCCc1c(OCC(O)COc2ccc(CC(=O)O)cc2Cl)ccc(C(C)=O)c1O (stereo not drawn) [Entry 7]	10
CCCc1c(OCCCOc2cccc(CCC(=O)O)c2)ccc(C(C)=O)c1O [Entry 2, reference compound]	10
CCCc1c(OCCCOc2ccc(C(=O)O)cc2)ccc(C(C)=O)c1O [Entry 1, reference compound]	10

// switching to the query compound
## Input Using the record for CCCc1c(OCCCOc2ccc(C=CC(=O)O)cc2)ccc(C(C)=O)c1O [Entry 3, reference compound] , report its ED50.
## Output 20
